- measurement.protocol: Human HepG2 cell viability assay in 384 well format
- Format: toxicity, cell-based
- Design: dose 125 nL, time 70.5 hour; concentration not given beside the values
- condition: HepG2 cells, read-out: Inhibition
quantity: cytotoxicity at 70.5 h
Answer shape: numeric part, then the unit.

Clc1ccccc1CCN1CCN(c2ccc3nncn3n2)CC1 :: -16.3%
Cc1nccn1-c1ccc(CNS(=O)(=O)N2CCCC(C)C2)cn1 (stereo unspecified) :: -4.59%
CC(C)Cc1cc(CNC(=O)c2cccc3c2OCC3)no1 :: -9.93%

Each of the following entries comes with a recorded value; kindly state cytotoxicity at 70.5 h for each.
1. COc1ccc(CCNC(C)c2ccc3[nH]c(=O)[nH]c3c2)cc1OC (stereo unspecified)
2. Cc1cccc(CN2C[C@H](OCc3csc(C)n3)[C@H]3COC[C@H]32)n1
3. CSc1nc(N)cc(N2C[C@@H]3CC[C@H](C2)N(Cc2cscn2)C3=O)n1
4. O=C(NCc1cnc2n1CCN(c1ncc(F)cn1)CC2)C1CCC1

["3.32%", "-3.75%", "7.64%", "-9.1%"]

Each of the following entries comes with a recorded value; kindly state cytotoxicity at 70.5 h for each.
1. C=Cc1cccc(CN2C[C@@H](CN(C)CC)[C@@H](CO)C2)c1
2. O=C(c1ccsc1)N1CCc2c(COCC3CC3)cncc2C1
3. OCCn1cc(CN2CCN(CCOc3cccc(F)c3)CC2)cn1

3.14%
18.9%
1.71%

Give me measured cytotoxicity at 70.5 h, please, for this compound: `Cc1csc(CN(C)S(=O)(=O)c2ccc(C)c(N(C)C)c2)n1`
-11.1%
